Where do the numbers come from? From the supplement of paper PMC10567573.

B1: KLHL12 (parent)
chain: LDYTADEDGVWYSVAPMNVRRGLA

Variants of: B1
Assay: protein stability index of a GFP-peptide fusion (GPS, HEK-293T) (PSI 1-6); higher = more stable;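 further: lentivirally expressed fusions sorted by FACS into six bins by GFP to DsRed ratio, PSI derived from sequencing read proportions per bin multiplied by bin number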
Settings: c terminus: a fixed tail appended
Measured Parameter: protein stability index
Output: the number by itself.

Dear colleague, I am looking for the recorded protein stability index of the following variant: A24H
2.13

Reported protein stability index, variant P16R : ____
2.25

Any idea what protein stability index was measured for Y3P ?
3.6

# protein stability index lookup, item A15N
2.33

// protein stability index lookup, key: Y12V
2.32

protein stability index for R20G ?
1.72

Looking for the measured protein stability index of E7S , can you help?
1.8

Recorded protein stability index of G9W , please.
1.94

Data request, read-out protein stability index, for T4L
4.91

What protein stability index value was documented for this variant, R20N ?
1.74

Reported protein stability index, variant Y3M : ____
2.33

Tell me the measured protein stability index of T4I , please.
2.12

Any idea what protein stability index was measured for P16T ?
2.62

Quick check: protein stability index of G9F ?
1.99

Quick one: protein stability index of R20A ?
2.1

Which protein stability index is reported for this variant? V14Q
3.31

For N18K , what is its reported protein stability index?
1.54

Query (variant): A24R ; field requested: protein stability index
1.97

Give the measured protein stability index of W11Y .
2.39

Name the reported protein stability index value associated with the variant E7A
1.28

Give the measured protein stability index of S13R .
1.94

Item under review: P16M . Reported protein stability index?
1.88

Sample D2F — what was its protein stability index?
1.98

Which protein stability index is reported for this variant? D2S
1.84

State the recorded protein stability index for this entry: D6Y
1.51

Find the recorded protein stability index belonging to D6P and report it.
2.46

Item A24S has what recorded protein stability index?
2.17

Item under review: V19L . Reported protein stability index?
2.22

Consider the variant M17L and give its measured protein stability index.
1.74

Param item = A15T ; retrieve measured protein stability index.
2.04

Please look up its protein stability index: L23Q
2.9

Which value of protein stability index has been reported for G22R in the records?
2.15

For the variant V14D , what protein stability index is on record?
3.79

For the variant D2N , what protein stability index is on record?
1.74

Requested field: protein stability index. Item: V19R
2.61

I would be grateful if you could share the reported protein stability index for T4F .
1.7

Item under review: Y3A . Reported protein stability index?
3.65

Would you mind telling me what protein stability index value was observed for Y3I ?
1.85

Consider the variant shown here: M17G What is its recorded protein stability index?
2.28

Form field: reported protein stability index of V19M
1.52

Find the recorded protein stability index belonging to W11Q and report it.
3.38

Looking for the measured protein stability index of N18Y , can you help?
2.24

Consider the variant N18I and give its measured protein stability index.
2.47

Would you kindly share the measured protein stability index for A24P ?
2.24

Which protein stability index is listed for R21L ?
2.93

Looking for the measured protein stability index of G22N , can you help?
1.62

Look up protein stability index: L1A
3.26

Could you tell me which protein stability index is on file for E7T ?
1.64

Which protein stability index is listed for Y3F ?
2.29

Field request: protein stability index | item: V10C
2.44

Consider the variant E7C and give its measured protein stability index.
1.65

Name the recorded protein stability index for T4N .
2.24

Please look up its protein stability index: V14Y
2.83

Request the reported protein stability index associated with A5F
1.37

I have this variant here, P16Y , and I need its recorded protein stability index.
2.56

Recorded protein stability index for A24E , please?
1.87

Requested field: protein stability index. Item: G22P
2.21

Give the measured protein stability index of A24C .
1.77

GET /values?readout=protein stability index&item= V19D
2.32

Param item = Y3H ; retrieve measured protein stability index.
3.43

Could you tell me which protein stability index is on file for L1G ?
3.19

So what's the measured protein stability index for this one? V10P
2.47

Data request, read-out protein stability index, for D8P
2.26

Look up protein stability index: D6C
2.61

// protein stability index lookup, key: L1V
2.25

Give its protein stability index value. Item: A5D
2.76

Need protein stability index, item N18T
1.77

Quick one: protein stability index for M17H ?
2.41

Quick one: protein stability index for V14A ?
2.76

Can you share its protein stability index? I mean this variant: T4C
1.98

If you can, please state the reported protein stability index value of P16W .
1.59

Which measured protein stability index value corresponds to S13F ?
2.6

What does the data say about its protein stability index? Entry: E7P
2.02

Sample P16F — what was its protein stability index?
1.84

What does the data say about its protein stability index? Entry: G9D
2.63

Entry under review: D6N . Reported protein stability index?
1.27

Sample V19G — what was its protein stability index?
1.95

For G9V , what is its reported protein stability index?
1.82

Item under review: V19H . Reported protein stability index?
2.98

I'd like to know its protein stability index. The variant in question is E7H
1.89

Dear colleague, I am looking for the recorded protein stability index of the following variant: E7L
2.79

For the variant shown here, Y12T , give the reported protein stability index.
3.12

Fill in the blank: the reported protein stability index of P16K is ____.
1.95

What does the record list as protein stability index for R21T ?
2.72

Which value of protein stability index has been reported for N18D in the records?
2.2

Look at this variant and give its reported protein stability index. V19P
2.11

protein stability index for A15M ?
1.76

Dear colleague, I am looking for the recorded protein stability index of the following variant: V14P
2.63
